- measurement-target: VSTB174
- Sequence (VH, as listed by the source, chain 1 of 2): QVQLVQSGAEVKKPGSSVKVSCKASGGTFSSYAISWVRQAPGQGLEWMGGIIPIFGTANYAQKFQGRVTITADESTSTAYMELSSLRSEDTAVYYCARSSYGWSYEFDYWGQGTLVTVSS
- Sequence (VL, as listed by the source, chain 2 of 2): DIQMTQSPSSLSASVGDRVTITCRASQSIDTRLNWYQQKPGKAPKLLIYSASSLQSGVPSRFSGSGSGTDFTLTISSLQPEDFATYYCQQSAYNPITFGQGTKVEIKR
- assay-protocol: peptide blocking ELISA on plate-bound VISTA, peptide 2 ug/mL
readout-kind: percent reduction in ELISA signal (%)

                                     binder                       readout_kind  unit_info  observed
0  TCRLLGPVDKGHDVT (synthetic overlapping peptide from human VISTA) [Spiked Peptide 5 (TCRLLGPVDKGHDVT)]  percent reduction in ELISA signal          %        14
1  VVEIRHHHSEHRVHG (synthetic overlapping peptide from human VISTA) [Spiked Peptide 24 (VVEIRHHHSEHRVHG)]  percent reduction in ELISA signal          %        48
2  DAPSNCVVYPSSSQE (synthetic overlapping peptide from human VISTA) [Spiked Peptide 29 (DAPSNCVVYPSSSQE)]  percent reduction in ELISA signal          %         8
3  GHQAANTSHDLAQRH (synthetic overlapping peptide from human VISTA) [Spiked Peptide 15 (GHQAANTSHDLAQRH)]  percent reduction in ELISA signal          %         9

All values here come from patent US20240132593A1.
